# Assay Explanation: gradient 5% acetonitrile 3 min, to 50% in 2 min, to 85% in 15 min, held 3 min, 100 µL/min
# Condition Info: column: Zorbax Extend-C18 2.1 x 50 mm; eluents: water / acetonitrile, 0.1% formic acid
# binarize RP-LC retention time: threshold 700 s inclusive, high side true (1), low side false (0)

In [3]: df
Out[3]:
                                    compound  label_value
 0  CCOc1ccc(-c2[nH]nc3nc(-c4cccc(OC)c4)cc(C(=O)O)c23)cc1     true (1)
 1  O=C(c1cc(Br)ccc1Cl)N1CCN(c2ccc(-n3ccnc3)nn2)CC1    false (0)
 2  c1ccc(-n2ncc3c(Nc4ccc5c(c4)OCO5)nc(N4CCOCC4)nc32)cc1     true (1)
 3  Cc1sc2ccn(CC(C)C)c(=O)c2c1C(=O)NCc1cc(F)ccc1F     true (1)
 4  O=S(=O)(c1ccc(F)cc1)N1CCc2nc(-c3ccc(F)cc3)ncc2C1     true (1)
 5  O=C(Nc1cc(F)ccc1F)c1c(O)c2cccnc2n(-c2ccc(F)cc2)c1=O     true (1)
 6  O=C(NC1CCCCC1)N1CC(c2nnc(-c3ccncc3)o2)C2(CCOCC2)C1 (stereo not drawn)    false (0)
 7   CC(C)n1cnc2cc(CNC(=O)Cc3ccc(F)cc3)ccc21    false (0)
 8  COCCN1CCn2cc(S(=O)(=O)Nc3ccc(C)c(F)c3)cc2C1=O     true (1)
 9          S=C1SCN(CCc2ccccc2)CN1CCc1ccccc1     true (1)
10  COc1ccc(-c2csc(NC(=O)c3sc(COc4ccc(Cl)c(C)c4)nc3C)n2)cc1     true (1)
11  COc1ccccc1N1CCN(C(=O)CCc2c(C)n(C)c3nc(-c4ccccc4)nn3c2=O)CC1     true (1)
12  Cn1cc(S(=O)(=O)N2CCCCC2)cc1C(=O)N1CCN(c2ccccc2F)CC1     true (1)
13  COc1ccc(-c2noc(CN3N=NC4C(=O)N(c5cccc(F)c5)C(=O)C43)n2)c(OC)c1 (stereo not drawn)    false (0)
14  CCOC(=O)c1c(-c2cccnc2)n(C)c2cc(-c3cccnc3)c(OC)cc12    false (0)
15  COc1ccc(-c2cn3ccn(-c4ccc(F)cc4)c(=O)c3n2)cc1OC     true (1)
16  COc1ccc(-c2nc(C)cc(C)c2CNS(=O)(=O)c2ccc(F)cc2)cc1    false (0)
17  CCc1ccc(Nc2nc(C(=O)NC3CCCCC3)nc3ccccc23)cc1     true (1)
18  CS(=O)(=O)Nc1ccc(C2(C(=O)NCCC3=CCCCC3)CCCCC2)cc1     true (1)
19  COc1ccc(Cc2cnc(NC(=O)C3Cc4ccccc4C(=O)O3)s2)cc1 (stereo not drawn)     true (1)
20  Cc1ccc(C)c(NC(=O)Cn2nc(N(C)C)c3ccccc3c2=O)c1     true (1)
21  Clc1cccc(-c2csc(Cc3nc(-c4ccc5c(c4)OCO5)no3)n2)c1     true (1)
22       Cc1ncoc1C(=O)N1CCOc2ccc(N(C)C)cc2C1    false (0)
23  Cc1noc(C)c1CCNC(=O)C(C)n1c2ccccc2c2cnn(C)c(=O)c21 (stereo not drawn)     true (1)
24   O=C(NCc1nn(Cc2ccccc2)c2ccccc12)c1cnccn1     true (1)
25       COCCC1CCN(C(=O)CCc2c(C)nn(C)c2C)CC1    false (0)
